Target: human sEH enzyme (Homo sapiens)
Construct: His-tag (N, cleaved yes); made in house; host or cells: E. coli
Assay: sEH human enzyme assay (fluorescence based enzyme in vitro assay)
Assay type: biochemical
Settings: recombinant human sEH about 1 nM, fluorescence substrate S7 10 uM, pH7.0, 25° C.; read-out: IC50 [nM] for human sEH enzyme inhibition
endpoint_label: log10 IC50 (log10 of the value in nM)
Please be aware that the numbers have been log10-transformed from IC50 in nM.

Example compounds with recorded log10 IC50:
compound	system_name	log10 IC50
CC1(c2ccccc2)CCCN(C(=O)Nc2nnc(-c3ccccc3)s2)C1 (centres unmarked) [Example 12]	human sEH enzyme (Homo sapiens)	2.53
O=C(Nc1ccc(C(F)(F)F)cc1)N1CCCC(CO)(Cc2ccccc2)C1 (centres unmarked) [Example 14]	human sEH enzyme (Homo sapiens)	0.30

Working through the 2 compounds below one at a time, give log10 IC50 for each.
1. O=C(O)CCC1(c2ccccc2)CCCN(C(=O)Nc2ccc(-n3nc(C(F)(F)F)cc3C(F)(F)F)cc2)C1 (centres unmarked) [Example 11]
2. CC1(c2ccccc2)CCCN(C(=O)NCc2nc3ccccc3s2)C1 (centres unmarked) [Example 38]

Completion:
0.48
1.48

Report log10 IC50 for every entry below.
1. CC1(c2ccccc2)CCCN(C(=O)Nc2cccnc2)C1 (centres unmarked) [Example 32]
2. CC1(c2ccccc2)CCCN(C(=O)NC2C3CC4CC(C3)CC2C4)C1 (centres unmarked) [Example 29]
3. O=C(Nc1ccc(Cl)cc1)N1CCCC(COCc2cc(C(F)(F)F)cc(C(F)(F)F)c2)(c2ccccc2)C1 (centres unmarked) [Example 1]

Completion:
2.49
1.00
0.30

----------
Target: human sEH enzyme (Homo sapiens)
Construct: His-tag (N, cleaved yes); made in house; host or cells: E. coli
Test: sEH human enzyme assay (fluorescence based enzyme in vitro assay)
Assay type: biochemical
Conditions: recombinant human sEH about 1 nM, fluorescence substrate S7 10 uM, pH7.0, 25° C.; read-out: IC50 [nM] for human sEH enzyme inhibition
endpoint_label: IC50

Here is how some molecules turned out for IC50.
molecule	IC50
O=C(Nc1ccc(Cl)cc1)N1CCCC(Cc2ccc(Cl)cc2)(c2ccccc2)C1 (stereo not drawn)	< 1 nM
O=C(O)CCC1(c2ccc(F)cc2)CCCN(C(=O)NCCCc2ccccc2)C1 (stereo not drawn)	6 nM
NC(=O)CCC1(c2ccccc2)CCCN(C(=O)Nc2ccc(Cl)cc2)C1 (stereo not drawn)	5 nM
CC1(c2ccccc2)CCCN(C(=O)NC2CCc3ccccc3CC2)C1 (stereo not drawn)	2 nM

For every record below, what is its IC50?
1. CC1(c2ccccc2)CCCN(C(=O)NC2CCc3ccccc3C2)C1 (stereo not drawn)
2. O=C(CCC1(c2ccccc2)CCCN(C(=O)Nc2ccc(Cl)cc2)C1)Nc1nnn[nH]1 (stereo not drawn)

Completion:
["1 nM", "1 nM"]

Each molecule below has a reported value. Please supply its IC50.
1. CC1(c2ccccc2)CCCN(C(=O)NCCc2ccc3nccnc3c2)C1 (stereo not drawn)
2. O=C(Nc1ccc(C(F)(F)F)cc1)N1CCCC(Cc2ccccn2)(C(=O)OCc2ccccc2)C1 (stereo not drawn)
3. COC(=O)CCC1(c2ccc(F)cc2)CCCN(C(=O)NCCCc2ccccc2)C1 (stereo not drawn)

Completion:
5 nM
2 nM
< 1 nM

----------
Give measured IC50 for each item. Keep answers brief.
Molecular target: human sEH enzyme (Homo sapiens, UniProt P34913)
Construct: His-tag (N, cleaved yes); made in house; host or cells: E. coli
Sequence (P34913 whole entry): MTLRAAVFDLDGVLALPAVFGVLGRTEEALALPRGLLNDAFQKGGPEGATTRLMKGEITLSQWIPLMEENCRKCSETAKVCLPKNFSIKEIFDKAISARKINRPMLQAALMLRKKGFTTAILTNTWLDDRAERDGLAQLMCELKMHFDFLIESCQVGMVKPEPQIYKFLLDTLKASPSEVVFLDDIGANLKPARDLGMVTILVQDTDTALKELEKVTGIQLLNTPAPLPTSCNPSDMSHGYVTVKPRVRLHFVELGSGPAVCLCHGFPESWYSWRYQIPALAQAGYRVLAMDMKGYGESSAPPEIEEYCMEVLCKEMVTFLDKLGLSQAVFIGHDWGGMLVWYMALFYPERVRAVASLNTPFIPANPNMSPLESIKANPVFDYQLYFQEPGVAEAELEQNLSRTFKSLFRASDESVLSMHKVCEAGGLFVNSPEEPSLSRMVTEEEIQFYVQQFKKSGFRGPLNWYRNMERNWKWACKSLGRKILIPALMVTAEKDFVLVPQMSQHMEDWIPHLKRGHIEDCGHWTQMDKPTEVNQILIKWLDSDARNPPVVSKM
Assay: sEH human enzyme assay (fluorescence based enzyme in vitro assay)
Type: biochemical
Details: recombinant human sEH about 1 nM, fluorescence substrate S7 10 uM, pH7.0, 25° C.; read-out: IC50 [nM] for human sEH enzyme inhibition
Answers are plain numbers, in nM.

Below are worked cases with known answers.
molecule	display_unit	endpoint_value
CC1(c2ccccc2)CCCN(C(=O)NCc2ccc(-c3ccc4cn[nH]c4c3)cc2)C1 (centres unmarked) [Example 43]	nM	6
COC(=O)CCC1(c2ccccc2)CCCN(C(=O)Nc2ccc(-n3nc(C(F)(F)F)cc3C(F)(F)F)cc2)C1 (centres unmarked) [Example 10]	nM	3
CCOC(=O)C1(Cc2nc3ccccc3[nH]2)CCCN(C(=O)Nc2ccc(C(F)(F)F)cc2)C1 (centres unmarked) [Example 22]	nM	3
CC1(c2ccccc2)CCCN(C(=O)NCc2ccc(-c3cccc4cnccc34)cc2)C1 (centres unmarked) [Example 44]	nM	3
CC1(c2ccccc2)CCCN(C(=O)NC[C@H]2C[C@@H]2c2ccccc2)C1 (stereo in doubt) [Example 28]	nM	7
CC1(c2ccccc2)CCCN(C(=O)NCCCc2cccnc2)C1 (centres unmarked) [Example 33]	nM	6
CC1(c2ccccc2)CCCN(C(=O)NCc2ccc(-c3ccccc3Cl)cc2)C1 (centres unmarked) [Example 40]	nM	6
O=C(NC1(Cc2ccccc2)CCCN(C(=O)Nc2ccc(C(F)(F)F)cc2)C1)OCc1ccccc1 (centres unmarked) [Example 15]	nM	5
CC1N(C(=O)Nc2ccc(Cl)cc2)CCCC1(C)c1ccccc1 (centres unmarked) [Example 4]	nM	5
CCOC(=O)C1(Cc2nccn2Cc2ccccc2)CCCN(C(=O)Nc2ccc(C(F)(F)F)cc2)C1 (centres unmarked) [Example 24]	nM	7

Dear colleague, could you please provide IC50 for the molecules listed below?
1. N#CCCC1(c2ccccc2)CCCN(C(=O)Nc2ccc(Cl)cc2)C1 (centres unmarked) [Example 46]
2. CNC(=O)C1(Cc2ccccc2)CCCN(C(=O)Nc2ccc(C(F)(F)F)cc2)C1 (centres unmarked) [Example 16]
3. CC1(c2ccccc2)CCCN(C(=O)NCc2ccc(-c3cccnc3)cc2)C1 (centres unmarked) [Example 41]

Completion:
3
6
1.5
